Tgt: T1, GABARAPL2 ATG8 (human)
T1 construct: GABARAPL2, ATG8 domain; source: E. coli BL21-Gold(DE3), purified (GSH or Ni2+ beads), tag removed by protease
Assay Remarks: fluorescence polarisation; direct binding (saturation curve): 1:1 dilution series of the protein domain with 5 nM FITC-labelled peptide; room temperature; 50 mM sodium phosphate buffer pH 7.4; fitted to the quadratic equation
Condition: both partners purified
No end group written: not given here.
Test Readout: Kd (µM)
Note: unit µM is implicit; provide only the numeric part.

Ask | Fill in the blank: the reported Kd of DDDWTHLSSK (also: FITC label, position not given here) [FITC-SQSTM1] is ____.
Reply | 11
